test: Cytotoxicity assay against leukemic K562 cells, MTT; conditions: human, K562 leukemic cells
measurementLabel: viability at 24 h, 100 µg/mL (%)
Give bare numbers, in %.

Recorded results for 2 molecules are shown here.
CC[C@H](C)[C@@H](OC(C)=O)[C@@H](C)C1=CC(=O)C2=C(O[C@]3(C)CC[C@H]4O[C@@H](C(C)(C)O)CC[C@]4(C)C3=C2)C1=O [Compound 4, anhydrocochlioquinone A] :: 10.6
C/C1=C\C[C@]2(C)C(=O)C(O)=C([C@H](C)CO)[C@H]2C/C=C(\C)[C@@H](O)CC/C(C)=C/CC1 :: 99.2

For every record below, what is its viability at 24 h, 100 µg/mL?
1. CC[C@H](C)[C@@H](OC(C)=O)[C@@H](C)C1=CC(=O)C2=C(O[C@]3(C)CC[C@H]4O[C@@H](C(C)(C)O)CC[C@]4(C)[C@H]3[C@@H]2O)C1=O
2. CC[C@H](C)[C@@H](OC(C)=O)[C@@H](C)C1=C(N)C(=O)C2=C(O[C@]3(C)CC[C@H]4O[C@@H](C(C)(C)O)CC[C@]4(C)[C@H]3[C@@H]2O)C1=O

1: 12.5; 2: 81.1
